Source of measurements: patent EP2468882A1

measured_on: Komplex aus SEQ ID NO: 12 und SEQ ID NO: 16 (Mycosarcoma maydis (Ustilago maydis), UniProt A0A0D1E894)
Sequence (A0A0D1E894 entry or part of it): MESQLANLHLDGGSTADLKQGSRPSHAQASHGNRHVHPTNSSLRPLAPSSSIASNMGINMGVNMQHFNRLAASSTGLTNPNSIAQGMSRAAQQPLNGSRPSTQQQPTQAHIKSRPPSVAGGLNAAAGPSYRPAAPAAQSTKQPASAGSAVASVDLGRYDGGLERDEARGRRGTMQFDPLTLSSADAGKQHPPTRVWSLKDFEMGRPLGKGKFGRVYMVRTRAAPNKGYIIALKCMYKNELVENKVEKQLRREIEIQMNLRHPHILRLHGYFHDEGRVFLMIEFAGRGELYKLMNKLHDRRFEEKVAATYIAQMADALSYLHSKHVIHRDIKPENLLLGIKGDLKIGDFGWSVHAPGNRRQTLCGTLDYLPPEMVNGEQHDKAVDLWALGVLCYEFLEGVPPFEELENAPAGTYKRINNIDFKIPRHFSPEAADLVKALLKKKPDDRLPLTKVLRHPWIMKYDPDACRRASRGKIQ
protocol_details: IMAP fluorescence polarisation assay, inhibition of Aurora kinase (AK/AKA complex)
Type: biochemical, U. maydis
particulars: final enzyme concentration 2 ng/µl, final ATP 35 µM, reaction time 50 min
Excerpt: Assay 3: Für den kommerziell erhältlichen IMAP Assay (Molecular Devices) sind 2 Substrate für humane Aurorakinasen (Kemptide, Cat #R7331, Sequenz 5TAMRA-LRRASLG-OH und PKAtide, Cat #R7250, Lot #130188, Sequenz 5FAM-GRTGRRNSI-NH2) kommerziell erwerbbar. Der Assay wurde nach Herstellerangaben durchgeführt. • IMAP Progressive Binding Reagent: Cat #R7284, Lot #143859 • IMAP Progressive Binding Buffer A: Cat #R7285, Lot #42898 • IMAP 5x Reaction Buffer: Cat #R7206, Lot #33060 […]

- smiles_representation: "COCCOc1ccc(Nc2ncc(Cl)c(NC3CC3)n2)cc1"
  IC50 (nM): 8.8
- smiles_representation: "CN[C@@H]1C[C@H]2O[C@@](C)([C@@H]1OC)n1c3ccccc3c3c4c(c5c6ccccc6n2c5c31)C(=O)NC4"
  IC50 (nM): 2.1
